Where these numbers come from: patent US20140199380A1

Experiment: Plasma concentration of Tadalafil after a single dose (pharmacokinetics, FIG. 1)
Conditions: male, human, in vivo, 20 mg
outcome-measure: half-life (h)
Give the value, in units of h, as a plain number.

Query :: Check the records and state half-life for CN1CC(=O)N2[C@H](c3ccc4c(c3)OCO4)c3[nH]c4ccccc4c3C[C@@H]2C1=O [Tadalafil]
Result :: 17.5
